Data provenance: patent US20170022281A1

# MEASURED_TARGET: T1, human PRLR (Biacore antigen) (human, UniProt P16471 25-234, limits assumed)
# T1 construct: The construct injected over captured antibody is not described (a soluble form is likely); also called huPRLR
# T1 sequence: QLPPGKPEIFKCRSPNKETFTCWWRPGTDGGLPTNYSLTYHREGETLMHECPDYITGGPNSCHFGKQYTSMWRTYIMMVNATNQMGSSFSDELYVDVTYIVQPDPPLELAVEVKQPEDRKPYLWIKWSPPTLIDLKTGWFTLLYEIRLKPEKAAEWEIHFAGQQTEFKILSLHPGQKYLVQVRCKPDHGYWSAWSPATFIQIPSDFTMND
# ASSAY_DETAILS: SPR simultaneous binding; PRLR held by surface mAb Ab40
# Description: Running buffer was HBS-EP+ (10 mM Hepes, pH7.4, 150 mM NaCl, 3 mM EDTA, 0.05% surfactant). Assay was performed at 12° C. using Biacore T200 and CM5 sensor chips with anti-human IgG (Pierce) amine-coupled in all 4 flow cells to ˜2000 RU. Separate test mAbs were captured in flowcells 2, 3 & 4 (flowcell 1 was reference, no test mAb). All 4 flowcells were then blocked by injection with isotype control mAb at 50 ug/ml. […]
QUANTITY_NAME: solution mAb binding, % of PRLR binding (%)
Field format: number, assumed %, no unit text.

Ask: I would be grateful if you could share the reported solution mAb binding, % of PRLR binding for chAb7 (antibody, human IgG1, kappa, V domains shown, chimeric, murine variable and human G1/kappa constant regions) VH: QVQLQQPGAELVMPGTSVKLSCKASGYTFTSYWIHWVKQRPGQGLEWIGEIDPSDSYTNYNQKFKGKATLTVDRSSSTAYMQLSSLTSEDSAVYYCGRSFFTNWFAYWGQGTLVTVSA VL: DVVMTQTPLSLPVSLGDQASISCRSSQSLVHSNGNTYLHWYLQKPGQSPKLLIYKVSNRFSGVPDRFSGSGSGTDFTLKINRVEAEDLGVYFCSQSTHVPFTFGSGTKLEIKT .
Result: -2

Ask: Would you kindly repeat that for Ab30 (antibody, human IgG1, kappa, V domains shown, humanized from Ab5; G1; also called Ab2 HC.1a and Ab2 LC.1a) VH: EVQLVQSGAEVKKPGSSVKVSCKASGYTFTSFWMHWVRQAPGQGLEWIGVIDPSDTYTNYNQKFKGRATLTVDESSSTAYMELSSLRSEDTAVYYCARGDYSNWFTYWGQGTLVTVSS VL: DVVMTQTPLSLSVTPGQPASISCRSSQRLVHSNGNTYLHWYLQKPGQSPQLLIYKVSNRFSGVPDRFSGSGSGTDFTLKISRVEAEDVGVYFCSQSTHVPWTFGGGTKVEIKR ?
Result: -2

Ask: Would you kindly repeat that for Ab21 (antibody, human IgG1, kappa, V domains shown, humanized from Ab6; G1; also called Ab1 HC.1a and Ab1 LC.2a) VH: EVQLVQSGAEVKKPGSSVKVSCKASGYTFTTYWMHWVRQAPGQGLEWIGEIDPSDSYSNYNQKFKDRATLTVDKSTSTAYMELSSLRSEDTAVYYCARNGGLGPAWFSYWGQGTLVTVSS VL: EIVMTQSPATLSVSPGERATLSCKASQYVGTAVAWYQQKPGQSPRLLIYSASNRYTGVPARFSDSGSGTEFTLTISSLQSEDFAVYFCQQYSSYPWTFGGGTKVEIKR ?
Result: -2
